screen value for assorted variants
B1: S. cerevisiae Abp1 (full length; SH3 domain 535-592 mutated) / Hua2 (parent)
chain 1: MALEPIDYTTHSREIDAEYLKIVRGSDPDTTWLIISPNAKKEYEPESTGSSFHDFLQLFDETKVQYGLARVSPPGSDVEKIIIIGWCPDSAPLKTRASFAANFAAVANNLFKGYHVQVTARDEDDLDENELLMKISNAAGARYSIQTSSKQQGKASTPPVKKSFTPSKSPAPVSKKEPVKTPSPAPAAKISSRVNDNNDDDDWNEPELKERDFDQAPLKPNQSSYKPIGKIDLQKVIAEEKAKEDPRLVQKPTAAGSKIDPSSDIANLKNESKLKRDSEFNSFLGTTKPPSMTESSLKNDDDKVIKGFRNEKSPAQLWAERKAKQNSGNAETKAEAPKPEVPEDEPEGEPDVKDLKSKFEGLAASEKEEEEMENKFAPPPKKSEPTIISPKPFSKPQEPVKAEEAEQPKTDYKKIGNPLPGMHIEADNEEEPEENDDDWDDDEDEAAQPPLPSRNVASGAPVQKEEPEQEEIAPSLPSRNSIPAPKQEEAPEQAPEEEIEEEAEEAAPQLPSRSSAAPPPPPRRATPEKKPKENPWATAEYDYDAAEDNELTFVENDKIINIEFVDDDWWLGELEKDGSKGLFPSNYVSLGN
chain 2: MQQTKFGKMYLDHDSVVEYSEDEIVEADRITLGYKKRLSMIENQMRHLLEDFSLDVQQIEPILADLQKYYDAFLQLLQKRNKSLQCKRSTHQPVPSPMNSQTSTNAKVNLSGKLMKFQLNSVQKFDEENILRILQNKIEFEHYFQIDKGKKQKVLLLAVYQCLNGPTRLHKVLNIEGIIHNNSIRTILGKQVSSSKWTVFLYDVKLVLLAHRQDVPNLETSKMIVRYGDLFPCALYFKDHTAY

# Variants of: B1
# Experiment summary: DHFR protein-fragment complementation in yeast (Abp1-DHFR F[1,2] x partner-DHFR F[3]), deep mutational scanning, second methotrexate selection vs reference
# Condition parameters: with Hua2; S. cerevisiae, DHFR-PCA selection in liquid with methotrexate at 30 C, two 72 h selections (the score uses the second); reference = the pre-selection culture; not an affinity; value at the no-binding floor (a bound); scale: DMS score: mean over two replicates of log2(f_test/f_ref + 0.5)/ln 2, minus the synonymous-codon median

Answered examples (8):
- Mutation name: "chain 1 Y543T"
  Endpoint: "screen value"
  Measured value: -3.01
- Mutation name: "chain 1 F553R"
  Endpoint: "screen value"
  Measured value: "< -3.06"
- Mutation name: "chain 1 P584K"
  Endpoint: "screen value"
  Measured value: "< -3.06"
- Mutation name: "chain 1 L590N"
  Endpoint: "screen value"
  Measured value: "< -3.06"
- Mutation name: "chain 1 I559H"
  Endpoint: "screen value"
  Measured value: "< -3.06"
- Mutation name: "chain 1 I559Q"
  Endpoint: "screen value"
  Measured value: "< -3.06"
- Mutation name: "chain 1 F553H"
  Endpoint: "screen value"
  Measured value: "< -3.06"
- Mutation name: "chain 1 V588P"
  Endpoint: "screen value"
  Measured value: "< -3.06"

[in] Could you please provide reported screen value for chain 1 W569A ? Thanks!
[out] < -3.06

[in] Could you please provide reported screen value for chain 1 G581E ? Thanks!
[out] -3.02

[in] Could you please provide reported screen value for chain 1 W570K ? Thanks!
[out] < -3.06

[in] Could you please provide reported screen value for chain 1 Y543A ? Thanks!
[out] < -3.06

[in] Could you please provide reported screen value for chain 1 E573P ? Thanks!
[out] < -3.06

[in] Could you please provide reported screen value for chain 1 I562D ? Thanks!
[out] < -3.06

[in] Could you please provide reported screen value for chain 1 W570Q ? Thanks!
[out] -3.01
